# Target Or System: Glutamate receptor 2 (Homo sapiens)
# Sequence (P42262 whole entry, canonical isoform): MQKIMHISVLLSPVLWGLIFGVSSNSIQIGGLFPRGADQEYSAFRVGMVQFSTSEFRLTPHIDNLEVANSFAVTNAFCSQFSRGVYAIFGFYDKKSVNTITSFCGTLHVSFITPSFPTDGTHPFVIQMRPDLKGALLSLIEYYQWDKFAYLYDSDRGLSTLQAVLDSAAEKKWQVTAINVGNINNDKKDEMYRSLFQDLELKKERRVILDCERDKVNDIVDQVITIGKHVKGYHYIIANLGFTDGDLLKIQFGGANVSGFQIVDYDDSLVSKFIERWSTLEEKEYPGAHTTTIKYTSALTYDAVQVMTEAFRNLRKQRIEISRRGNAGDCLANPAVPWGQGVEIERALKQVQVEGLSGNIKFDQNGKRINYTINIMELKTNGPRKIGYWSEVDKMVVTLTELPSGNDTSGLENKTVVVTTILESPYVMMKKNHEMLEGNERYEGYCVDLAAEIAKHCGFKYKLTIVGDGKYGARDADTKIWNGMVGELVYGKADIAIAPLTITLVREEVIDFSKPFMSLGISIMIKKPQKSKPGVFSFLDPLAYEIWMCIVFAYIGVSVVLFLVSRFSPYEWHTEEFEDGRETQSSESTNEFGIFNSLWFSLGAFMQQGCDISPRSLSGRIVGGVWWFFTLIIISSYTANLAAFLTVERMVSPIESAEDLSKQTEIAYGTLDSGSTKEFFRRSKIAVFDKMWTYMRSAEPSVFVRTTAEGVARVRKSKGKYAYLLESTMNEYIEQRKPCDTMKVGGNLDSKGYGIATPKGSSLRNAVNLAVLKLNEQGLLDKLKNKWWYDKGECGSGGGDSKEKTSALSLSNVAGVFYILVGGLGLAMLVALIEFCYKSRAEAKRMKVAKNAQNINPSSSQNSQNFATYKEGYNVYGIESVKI
# Procedure Text: Positive allosteric modulation of GluA2Q flop isoform (unknown origin) expressed in HEK293 cells assessed as increase in L-glutamate induced calcium flux after 1 hr by fluo-4AM dye-based fluorescence assay
# Format: cell-based
# Condition Notes: read-out: EC50
pEC50: −log10 of the molar value.
Experimental Endpoint: pEC50

Recorded pEC50, per entry:
Smiles Notation	Target Or System	pEC50
Cc1ccc2c(c1)N(C)CNS2(=O)=O	Glutamate receptor 2 (Homo sapiens)	3.39
CN1CNS(=O)(=O)c2ccccc21	Glutamate receptor 2 (Homo sapiens)	3.75
Cc1ccc2c(c1)N(C1CC1)CNS2(=O)=O	Glutamate receptor 2 (Homo sapiens)	4.32
O=S1(=O)NCN(C2CC2)c2ccccc21	Glutamate receptor 2 (Homo sapiens)	5.04

a = CN1CNS(=O)(=O)c2ccc(CCc3ccc4c(c3)N(C)CNS4(=O)=O)cc21
b = O=S1(=O)NCN(C2CC2)c2cc(CCc3ccc4c(c3)N(C3CC3)CNS4(=O)=O)ccc21
-- ask Exercise: compare a and b ; which one has the greater pEC50? // return label of chosen record
-- reply b
